Assay: Toxicokinetics, plasma LPM3480392 after intravenous administration
Format: in vivo, Sprague Dawley (SD) rats
Settings: female, Sprague-Dawley, rat, plasma, intravenous, 1.2 mg/kg/day, 1.2 mg/kg/day iv; 28th dosing day; F; read-out: C2min (The 1st dosing)
Experimental: Blood samples from animals in LPM3480392 groups were collected at predose and 2 min, 30 min, 1 h and 4 h postdose of the 1st dosing on Days 1 and 28; at 2 min and 4 h postdose of the 2nd dosing on Days 1 and 28; at 2 min, 1 h and 4 h postdose the 3rd dosing on Days 1 and 28. Animals in control group were sampled at predose and 2 min postdose of the 1st dosing on Days 1 and 28. […] TK parameters (AUC, Cmax, Tmax) were calculated by Phoenix WinNonlin (Pharsight) 8.2. […]
experimentalReadout: concentration at 2 min (ng/mL)
Answer in ng/mL, number only, no unit symbol.

Report measured concentration at 2 min; entry is Fc1ccc([C@]2(CCNCc3cccc(Cl)c3)CCO[C@]3(CCOC3)C2)nc1 [LPM3480392]
187
